test system: ACAT 2 (Mus musculus, UniProt O88908)
Construct: The source of ACAT 2 enzyme used was a membrane fraction derived from mouse liver microsome; from tissue; host or cells: mouse liver (microsome fraction)
assay notes: ACAT-inhibiting activity, mouse liver microsome membrane fraction, [14C]oleoyl-CoA
Assay type: biochemical
condition: mouse liver microsome, 5 minutes at 37° C.
measurement type: IC50

Input: Fill in: IC50 of CC(=O)OCC1(C)C2C[C@H](OC(=O)c3ccc(F)cc3)[C@@]3(C)Oc4cc(-c5cccnc5)oc(=O)c4[C@H](O)C3[C@@]2(C)CC[C@@H]1OC(C)=O (stereo partly drawn) [PRD 020] is ___
Output: < 10 nM

Input: May I ask what IC50 has been recorded for CC12COC(c3ccccc3)O[C@H]1CC[C@@]1(C)C2C[C@H](OC(=O)c2ccccc2Cl)[C@@]2(C)Oc3cc(-c4cccnc4)oc(=O)c3[C@H](O)C12 (stereo partly drawn) [PRD 049] ?
Output: 10 to 100 nM

Input: Consider the molecule shown here: CC12COC(c3ccccc3)O[C@H]1CC[C@@]1(C)C2C[C@H](OC(=O)c2ccc(F)cc2)[C@@]2(C)Oc3cc(-c4cccnc4)oc(=O)c3[C@H](O)C12 (stereo partly drawn) [PRD 048] What is its recorded IC50?
Output: 10 to 100 nM

----------
test system: ACAT 2 (Mus musculus, UniProt O88908)
Construct: The source of ACAT 2 enzyme used was a membrane fraction derived from mouse liver microsome; from tissue; host or cells: mouse liver (microsome fraction)
assay notes: ACAT-inhibiting activity, mouse liver microsome membrane fraction, [14C]oleoyl-CoA
Assay type: biochemical
condition: mouse liver microsome, 5 minutes at 37° C.
Description: The source of ACAT 2 enzyme used was a membrane fraction derived from mouse liver microsome. Mouse liver was homogenized in buffer solution A (50 mM Tris-HCl (pH 7.8), 1 mM ethylenediamine tetraacetate, and 1 mM phenylmethanesulfonyl fluoride) using a homogenizer of the Potter type (Tokyo-RIKO). The homogenate was centrifuged at 12000×g, and the supernatant was ultracentrifuged at 100000×g. […]
measurement type: IC50

Input: Tell me the measured IC50 of CC(=O)OCC1(C)C2C[C@@H](N=[N+]=[N-])[C@@]3(C)Oc4cc(-c5cccnc5)oc(=O)c4[C@H](O)C3[C@@]2(C)CC[C@@H]1OC(C)=O (stereo partly drawn) [PRD 062, 7-(R)-azide-7-(S)-deacetylpyripyropene A] , please.
Output: 0.1 to 1 µM

Input: What does the data say about its IC50? Entry: CC(=O)OCC1(C)C2C[C@H](OC(=O)c3ccc(N=[N+]=[N-])cc3)[C@@]3(C)Oc4cc(-c5cccnc5)oc(=O)c4[C@H](O)C3[C@@]2(C)CC[C@@H]1OC(C)=O (some centres unmarked)
Output: 0.01 to 0.1 µM

Input: Looking for the measured IC50 of CC(=O)OCC1(C)C2C[C@H](OC(=O)c3ccc(I)cc3)[C@@]3(C)Oc4cc(-c5cccnc5)oc(=O)c4[C@H](O)C3[C@@]2(C)CC[C@@H]1OC(C)=O (some centres unmarked) , can you help?
Output: 0.01 to 0.1 µM

Input: Query: IC50; subject: CC(=O)OCC1(C)C2C[C@H](OC(=O)c3cccc(Br)c3)[C@@]3(C)Oc4cc(-c5cccnc5)oc(=O)c4[C@H](O)C3[C@@]2(C)CC[C@@H]1OC(C)=O (some centres unmarked)
Output: < 0.01 µM

Input: Item under review: CC(=O)OCC1(C)C2C[C@H](OC(=O)Oc3ccc(Cl)cc3)[C@@]3(C)Oc4cc(-c5cccnc5)oc(=O)c4[C@H](O)C3[C@@]2(C)CC[C@@H]1OC(C)=O (some centres unmarked) . Reported IC50?
Output: 0.01 to 0.1 µM

----------
test system: ACAT 2 (Mus musculus)
Construct: The source of ACAT 2 enzyme used was a membrane fraction derived from mouse liver microsome; from tissue; host or cells: mouse liver (microsome fraction)
Sequence (O88908 1-525): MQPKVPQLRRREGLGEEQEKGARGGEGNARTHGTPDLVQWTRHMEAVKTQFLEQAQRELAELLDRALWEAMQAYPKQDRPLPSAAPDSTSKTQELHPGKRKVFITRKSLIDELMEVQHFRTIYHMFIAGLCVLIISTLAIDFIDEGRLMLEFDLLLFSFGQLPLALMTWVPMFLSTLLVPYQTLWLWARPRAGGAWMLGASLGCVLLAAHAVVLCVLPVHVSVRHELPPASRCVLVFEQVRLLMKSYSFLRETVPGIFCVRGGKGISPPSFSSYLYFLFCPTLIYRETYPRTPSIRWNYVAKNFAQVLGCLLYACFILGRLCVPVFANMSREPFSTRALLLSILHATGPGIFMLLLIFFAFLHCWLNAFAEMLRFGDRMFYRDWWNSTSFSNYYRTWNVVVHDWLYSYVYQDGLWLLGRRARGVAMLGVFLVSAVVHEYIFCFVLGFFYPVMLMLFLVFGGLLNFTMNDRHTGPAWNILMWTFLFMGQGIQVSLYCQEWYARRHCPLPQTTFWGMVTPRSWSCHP
assay notes: ACAT-inhibiting activity, mouse liver microsome membrane fraction, [14C]oleoyl-CoA
Assay type: biochemical
condition: mouse liver microsome, 5 minutes at 37° C.
pIC50: −log10 of the molar value.
measurement type: pIC50

Input: Fill in the recorded pIC50 for this molecule, with ACAT 2 (Mus musculus) as test system: CSc1cccc(C(=O)O[C@H]2CC3C(C)(COC(C)=O)[C@@H](OC(C)=O)CC[C@]3(C)C3[C@@H](O)c4c(cc(-c5cccnc5)oc4=O)O[C@@]32C)c1 (some centres unmarked) [PRD 023]
Output: 7.00 to 8.00

Input: Param readout = pIC50; param system = ACAT 2 (Mus musculus); param query = CC(=O)OCC1(C)C2C[C@H](OC(=O)CCN3CCN(C)CC3)[C@@]3(C)Oc4cc(-c5cccnc5)oc(=O)c4[C@H](O)C3[C@@]2(C)CC[C@@H]1OC(C)=O (some centres unmarked) [PRD 104] ; response: value
Output: 6.00 to 7.00

Input: Query the reported pIC50 for ACAT 2 (Mus musculus); item: CC12COC(c3ccccc3)O[C@H]1CC[C@@]1(C)C2C[C@H](OC(=O)c2ccc([N+](=O)[O-])cc2)[C@@]2(C)Oc3cc(-c4cccnc4)oc(=O)c3[C@H](O)C12 (some centres unmarked) [PRD 045]
Output: 7.00 to 8.00

Input: Value wanted: pIC50 (ACAT 2 (Mus musculus)) of entry CC(=O)OCC1(C)C2C[C@H](OC(=O)c3ccccc3C#N)[C@@]3(C)Oc4cc(-c5cccnc5)oc(=O)c4[C@H](O)C3[C@@]2(C)CC[C@@H]1OC(C)=O (some centres unmarked) [PRD 015]
Output: 6.00 to 7.00

Input: API: value(readout= pIC50, system= ACAT 2 (Mus musculus), query= CC(=O)OCC1(C)C2C[C@H](OC(=O)c3ccc4ccccc4c3)[C@@]3(C)Oc4cc(-c5cccnc5)oc(=O)c4[C@H](O)C3[C@@]2(C)CC[C@@H]1OC(C)=O (some centres unmarked) [PRD 037, 7-2-naphthoyl-7-deacetylpyripyropene A] )
Output: 6.00 to 7.00

Input: Fill in the recorded pIC50 for this molecule, with ACAT 2 (Mus musculus) as test system: CC(=O)OCC1(C)C2C[C@H](OC(=O)c3ccccc3)[C@@]3(C)Oc4cc(-c5cccnc5)oc(=O)c4[C@H](O)C3[C@@]2(C)CC[C@@H]1OC(C)=O (some centres unmarked) [PRD 027, 7-benzoyl-7-deacetylpyripyropene A]
Output: 7.00 to 8.00

Input: # query: pIC50 | item CC(=O)OCC1(C)C2C[C@H](OC(=O)CO)[C@@]3(C)Oc4cc(-c5cccnc5)oc(=O)c4[C@H](O)C3[C@@]2(C)CC[C@@H]1OC(C)=O (some centres unmarked) [PRD 107] | system: ACAT 2 (Mus musculus)
Output: 6.00 to 7.00

Input: Request body: readout pIC50, system ACAT 2 (Mus musculus), query CC(=O)OCC1(C)C2C[C@H](OC(=O)c3cc4ccccc4s3)[C@@]3(C)Oc4cc(-c5cccnc5)oc(=O)c4[C@H](O)C3[C@@]2(C)CC[C@@H]1OC(C)=O (some centres unmarked) [PRD 035] . Return the value.
Output: 6.00 to 7.00

Input: Please state recorded pIC50 (tested on ACAT 2 (Mus musculus)) of CC(=O)OCC1(C)C2C[C@H](OC(=O)C34CC5CC(CC(C5)C3)C4)[C@@]3(C)Oc4cc(-c5cccnc5)oc(=O)c4[C@H](O)C3[C@@]2(C)CC[C@@H]1OC(C)=O (some centres unmarked) [PRD 022]
Output: > 8.00

Input: Please tell me: pIC50 of CC12COC(c3ccccc3)O[C@H]1CC[C@@]1(C)C2C[C@H](OC(=O)c2ccc(C=O)cc2)[C@@]2(C)Oc3cc(-c4cccnc4)oc(=O)c3[C@H](O)C12 (some centres unmarked) [PRD 054] , system ACAT 2 (Mus musculus)?
Output: 7.00 to 8.00

Input: Request - read-out pIC50 | tested on ACAT 2 (Mus musculus) | molecule CC(=O)OCC1(C)C2C[C@H](OC(=O)C3CCC(C)CC3)[C@@]3(C)Oc4cc(-c5cccnc5)oc(=O)c4[C@H](O)C3[C@@]2(C)CC[C@@H]1OC(C)=O (some centres unmarked) [PRD 085]
Output: 7.00 to 8.00
